meta.source: PubChem BioAssay AID1851

measured.on: Cytochrome P450 1A2 (Homo sapiens)
test.name: Cytochrome panel assay with activity outcomes
protocol.conditions: recombinant CYP, pro-luciferin dealkylation, luminescence, p450-cyp1a2; series mostly up to 57.1 µM
In all, about 16,000 compounds went through this assay and about 5,700 (36%) were called active. About 24% were inconclusive and are not listed. The list shows a part of the results.
readout.kind: AC50

The cases that follow already have their AC50 on record.
compound | measured.on | test.result
O=C(COc1ccc(Cl)cc1)N(Cc1ccccc1)c1ccccn1 | Cytochrome P450 1A2 (Homo sapiens) | 2240 nM (active)
CCC(C)NC(=O)C1c2cc(OC)c(OC)cc2C(=O)N(C)C1c1cccs1 (stereo unspecified) | Cytochrome P450 1A2 (Homo sapiens) | inactive
N=C1/C(=C/c2cccs2)C(=O)N=C2SN=C(SCc3ccccc3)N12 | Cytochrome P450 1A2 (Homo sapiens) | 15800 nM (active)
CCCCNc1cc(=O)oc2ccccc12 | Cytochrome P450 1A2 (Homo sapiens) | 708 nM (active)
[Li+] | Cytochrome P450 1A2 (Homo sapiens) | inactive
COc1ccc(OC)c(/C=N/NC(=O)c2csc3ccccc23)c1 | Cytochrome P450 1A2 (Homo sapiens) | 3160 nM (active)
CCN(CC)c1ccc(NC(=O)c2cnn(CC)c2)cc1 | Cytochrome P450 1A2 (Homo sapiens) | inactive
CO[C@]1(NC(=O)Cc2cccs2)C(=O)N2C(C(=O)O)=C(COC(N)=O)CS[C@H]21 | Cytochrome P450 1A2 (Homo sapiens) | inactive
CN(C)c1nc(-c2ccccc2C(F)(F)F)nc2ccccc12 | Cytochrome P450 1A2 (Homo sapiens) | 251 nM (active)
COc1cccc(Cn2c(=O)c(-c3cccs3)nc3cncnc32)c1 | Cytochrome P450 1A2 (Homo sapiens) | 5010 nM (active)

Exercise: Please report the recorded AC50 for CC1(C)Oc2ccc(NC(=O)c3ccco3)cc2O1 .
Key: 5010 nM (active)
